Values compiled from ChEMBL document CHEMBL4811303.

assay: Selectivity index, ratio of IC50 for cytotoxicity against bovine MDBK cells to IC50 for Trypanocidal activity against Trypanosoma brucei brucei; conditions: cattle
Recorded selectivity ratio for the following compounds
measured_quantity: selectivity ratio

In [3]: df
Out[3]:
                                 smiles_text  result_modifier  observed_result
 0       COc1ccccc1-c1cnc(-c2c(OC)cccc2OC)o1                =              1.9
 1   COc1cccc(-c2ncc(-c3c(OC)cccc3OC)o2)c1OC                =              2.9
 2  COc1cccc(-c2ncc(-c3ccc(OC)c(OC)c3OC)o2)c1OC                =              1.5
 3       COc1ccccc1-c1coc(-c2cccc(OC)c2OC)n1                >              8.4
 4  CC(=O)Oc1ccc(OC(C)=O)c(-c2cnc(-c3ccccc3)o2)c1                =             0.58
 5          Oc1ccccc1-c1nnc(-c2cccc(O)c2O)s1                =              3.5
 6         COc1cccc(-c2ncc(-c3ccccc3OC)o2)c1                <              1.8
 7     COc1ccc(-c2ncc(-c3ccccc3OC)o2)c(OC)c1                =             0.79
 8  COc1cccc(-c2cnc(-c3ccc(OC)c(OC)c3OC)o2)c1OC                >              4.2
 9  COc1ccc(-c2cnc(-c3ccc(OC)c(OC)c3OC)o2)c(OC)c1OC                =              1.1
10     COCOc1ccccc1-c1cnc(-c2cccc(OC)c2OC)o1                =              3.8
11     CCCOc1ccccc1-c1cnc(-c2cccc(OC)c2OC)o1                >               15
12         COc1cccc(-c2ncc(-c3ccccc3)o2)c1OC                =             0.47
13       COc1cccc(-c2cnc(-c3cccc(OC)c3)o2)c1                >              5.7
14  CC(=O)Oc1ccc(OC(C)=O)c(-c2cnc(-c3cc(OC(C)=O)ccc3OC(C)=O)o2)c1                =             0.85
15  COc1cccc(-c2ncc(-c3ccccc3OCc3ccccc3)o2)c1OC                =              6.3
16   COc1cccc(-c2cnc(-c3cccc(OC)c3OC)o2)c1OC                =              1.3
17  CC(=O)Oc1ccc(OC(C)=O)c(-c2ncc(-c3ccccc3OC(C)=O)o2)c1                =              1.9
18          Oc1ccccc1-c1coc(-c2cccc(O)c2O)n1                =              7.5
19     COc1cccc(-c2cnc(-c3cccc(OC)c3OC)o2)c1                =              1.3
20  COc1ccc(-c2cnc(-c3cccc(OC)c3OC)o2)c(OC)c1                >              8.3

====

test: Selectivity index, ratio of IC50 for cytotoxicity against bovine MDBK cells to IC50 for Trypanocidal activity against Trypanosoma congolense
selectivity ratio values, listed per item
measured_quantity: selectivity ratio

In [3]: df
Out[3]:
                                smiles_text  measured_quantity  result_modifier  observed_result
0  CC(=O)Oc1ccc(OC(C)=O)c(-c2cnc(-c3cc(OC(C)=O)ccc3OC(C)=O)o2)c1  selectivity ratio                =              1.8
1     COc1ccc(-c2ncc(-c3ccccc3OC)o2)c(OC)c1  selectivity ratio                =              3.9
2    COc1cccc(-c2ncc(-c3ccccc3N(C)C)o2)c1OC  selectivity ratio                >               66
3       COc1ccccc1-c1cnc(-c2c(OC)cccc2OC)o1  selectivity ratio                =              7.1
4     Oc1ccc(O)c(-c2cnc(-c3cc(O)ccc3O)o2)c1  selectivity ratio                =              2.6
5        Oc1ccc(O)c(-c2ncc(-c3ccccc3O)o2)c1  selectivity ratio                =              8.2
6          Oc1ccccc1-c1cnc(-c2cccc(O)c2O)o1  selectivity ratio                =              6.3

====

experiment: Selectivity index, ratio of IC50 for cytotoxicity against bovine MDBK cells to IC50 for Trypanocidal activity against Trypanosoma congolense
measured_quantity: selectivity ratio

>>> print(df.to_string())
                                smiles_text  observed_result
0  COc1cccc(-c2cnc(-c3ccc(OC)c(OC)c3OC)o2)c1OC            > 5.3
1  COc1ccc(-c2cnc(-c3cccc(OC)c3OC)o2)c(OC)c1            > 190
2           COc1ccccc1-c1cnc(-c2ccccc2OC)o1            > 128
3       COc1ccccc1-c1coc(-c2cccc(OC)c2OC)n1             > 34
4     COc1ccc(OC)c(-c2cnc(-c3ccccc3OC)o2)c1             > 75

====

system: Trypanosoma brucei rhodesiense; assay: Trypanocidal activity against Trypanosoma brucei rhodesiense assessed as reduction in intracellular ATP production incubated for 72 hrs by CellTiter-Glo luminescent cell viability assay; type: functional, organism-based
pIC50: −log10 of the molar value.
Listed below: pIC50 values for each entry.
measured_quantity: pIC50

>>> print(df.to_string())
                                smiles_text  observed_result
0         COc1cccc(-c2ncc(-c3ccccc3OC)o2)c1           < 4.05
1       COc1ccc(-c2cnc(-c3ccc(OC)cc3)o2)cc1           < 4.05
2  COc1ccc(OC)c(-c2cnc(-c3cc(OC)ccc3OC)o2)c1           < 4.14

====

system: Trypanosoma brucei brucei; experiment: Trypanocidal activity against Trypanosoma brucei brucei assessed as reduction in intracellular ATP production incubated for 72 hrs by CellTiter-Glo luminescent cell viability assay; type: functional, organism-based
pIC50: −log10 of the molar value.
measured_quantity: pIC50

>>> print(df.to_string())
                                 smiles_text  observed_result
 0  COc1ccc(OC)c(-c2cnc(-c3cccc(OC)c3OC)o2)c1           < 4.14
 1  COc1ccc(OC)c(-c2cnc(-c3cc(OC)ccc3OC)o2)c1           < 4.14
 2           COc1ccccc1-c1cnc(-c2ccccc2OC)o1           < 4.05
 3        COc1cccc(-c2ncc(-c3ccccc3O)o2)c1OC           < 4.08
 4         COc1cccc(-c2ncc(-c3ccccc3OC)o2)c1           < 4.05
 5     COc1ccc(OC)c(-c2ncc(-c3ccccc3OC)o2)c1           < 4.10
 6     COc1ccc(OC)c(-c2cnc(-c3ccccc3OC)o2)c1           < 4.10
 7      CCOc1ccccc1-c1cnc(-c2cccc(OC)c2OC)o1           < 4.11
 8       COc1ccccc1-c1cnc(-c2cccc(OC)c2OC)o1           < 4.10
 9       COc1ccc(-c2cnc(-c3ccc(OC)cc3)o2)cc1           < 4.05
10  COc1cccc(-c2ncc(-c3ccccc3NC(C)=O)o2)c1OC           < 4.13
11       COc1ccc(OC)c(-c2cnc(-c3ccccc3)o2)c1           < 4.05

====

test: Selectivity index, ratio of IC50 for cytotoxicity against bovine MDBK cells to IC50 for Trypanocidal activity against Trypanosoma evansi
# selectivity ratio annotations
measured_quantity: selectivity ratio

In [3]: df
Out[3]:
                                smiles_text  measured_quantity  observed_result
0     COc1ccc(-c2ncc(-c3ccccc3OC)o2)c(OC)c1  selectivity ratio             0.91
1  COc1cccc(-c2ncc(-c3ccccc3[N+](=O)[O-])o2)c1OC  selectivity ratio            > 6.3
2  CC(=O)Oc1ccccc1-c1cnc(-c2cccc(OC(C)=O)c2OC(C)=O)o1  selectivity ratio             0.96
3     CCCOc1ccccc1-c1cnc(-c2cccc(OC)c2OC)o1  selectivity ratio             > 10
4     Oc1ccc(O)c(-c2cnc(-c3cc(O)ccc3O)o2)c1  selectivity ratio             0.51
5         COc1cccc(-c2ncc(-c3ccccc3OC)o2)c1  selectivity ratio            < 1.8
6        COc1cccc(-c2ncc(-c3ccccc3N)o2)c1OC  selectivity ratio             0.45
7    COc1cccc(-c2ncc(-c3ccccc3N(C)C)o2)c1OC  selectivity ratio             > 12
